- Measurement Protocol: chemical recovery from spiked human plasma; higher = better extraction;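 note: plasma spiked with over 400 chemicals, quantified by LC-HRMS and GC-HRMS via internal standard calibration against matrix-matched unspiked plasma extracts plus spike mix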
- Test Conditions: pooled human plasma; extraction method: PES+SPE (3 d PDMS equilibration then HLB SPE)
Readout Kind: chemical recovery

[
  {
    "Compound": "NC(=O)Nc1ccc(Cl)c(Cl)c1",
    "chemical recovery": "56.4%"
  }
]

chemical recovery in this record for c1ccc2sc(NC3CCCCC3)nc2c1 : 98.9%

chemical recovery in this record for CN(Cc1cnc2nc(N)nc(N)c2n1)c1ccc(C(=O)N[C@@H](CCC(=O)O)C(=O)O)cc1 [Methotrexate] : 60.3%

chemical recovery in this record for Cc1c(N)c(=O)n(-c2ccccc2)n1C [4-Aminoantipyrine] : 6.85%

chemical recovery in this record for O=P(OCCCl)(OCCCl)OCCCl [Tris(2-chloroethyl)phosphate] : 52.1%

chemical recovery in this record for c1ccc2c(c1)Cc1cc3ccccc3cc1-2 : 57.9%
